- target of assay: T1, hVEGF-A (8-109) (human, UniProt P15692 214-315)
- T1 sequence (looked up): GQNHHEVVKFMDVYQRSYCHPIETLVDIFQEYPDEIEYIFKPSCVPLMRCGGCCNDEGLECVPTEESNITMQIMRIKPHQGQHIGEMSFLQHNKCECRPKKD
- assay summary: SPR
measured quantity: pKd
As a rule, pKd stands for the negative log10 of the concentration, concentration in M.

Consider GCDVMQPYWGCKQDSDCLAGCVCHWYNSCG (designed binder, also called EM63) [VEGF_CKP9.63] . Its measured pKd is 7.00
